- Target Desc: Human 20S immunoproteasome β1i (Homo sapiens)
Measure: Ki (µM)
Number in µM, nothing else.

Inquiry: Ki of "CC(C)CCNC(=O)Cn1ccc2ncccc2c1=O" on Human 20S immunoproteasome β1i (Homo sapiens)?
Reply text: 4.9
